Tested on: RXRa homodimer (NR concentration 180 nM)
Test: PBM binding z-score (relative to random genomic background probes); higher = stronger binding; sequences stand for … in GC…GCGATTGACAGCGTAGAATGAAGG
Output yes for PBM binding z-score not less than 1; output no otherwise.

| item.sequence | target.entity | qualitative.label |
| --- | --- | --- |
| CCTACTGGGCCAAAGGTCATTGTTTCCAATGCTC | RXRa homodimer (NR concentration 180 nM) | yes |
| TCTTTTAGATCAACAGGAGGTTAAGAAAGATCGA | RXRa homodimer (NR concentration 180 nM) | yes |
| TCTAGTTGGTCACGGTGGTCACACACGACGGGTA | RXRa homodimer (NR concentration 180 nM) | no |
| AATACAGGGTCACTAGGCCACAGTAGGTACGAAT | RXRa homodimer (NR concentration 180 nM) | yes |
| GCATATAAGTAATACAAGGTGAAAGTCCGATTGT | RXRa homodimer (NR concentration 180 nM) | no |

Could you now look at the following sequence, please?
QUERY: Hi team, for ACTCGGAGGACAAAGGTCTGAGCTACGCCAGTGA , is the recorded PBM binding z-score at or above 1?
RESULT: no
